Target: T1, Human OSCAR (osteoclast-associated receptor), full length, on cells (human)
T1 chain: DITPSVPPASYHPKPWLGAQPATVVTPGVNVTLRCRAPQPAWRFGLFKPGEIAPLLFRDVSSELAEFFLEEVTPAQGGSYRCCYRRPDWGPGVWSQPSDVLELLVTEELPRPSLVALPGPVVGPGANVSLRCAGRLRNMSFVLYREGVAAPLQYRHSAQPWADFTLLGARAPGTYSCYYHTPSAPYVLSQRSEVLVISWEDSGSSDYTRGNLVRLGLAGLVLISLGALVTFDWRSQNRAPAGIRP
Experiment: cell-based or functional assay
assay_readout: IC50 (IL-8), ColI-induced IL-8 release from moDC, Donor 3 (nM)
One number for each entry, in nM.

What does the record list as IC50 (IL-8), ColI-induced IL-8 release from moDC, Donor 3 for 7F21A1 (antibody, V domains shown, Mouse anti-human OSCAR mAb; The heavy chain entry covers only VH-CH1 and the start of the hinge) VH: QVQLQQSGAELVRPGTSVKVSCRSSGYAFTNYLIEWIKQRPGQGLEWIGVITPGSGGTNYNENFKDKATLTADKSSNTAYMQLTSLTSDDSAVYFCARSFDYDGAWFAYWGQGTLVTVSA VL: DIQMTQSPASLSVSVGETVTITCRASEKIYSNLAWYQQKQGKSPQLLVYAATNLADGVPSRFSGSGSGTQFSLKINNLQSEDFGSYYCQHFWGTPWTFGGGTKLEIKR ?
0.64

Taken from patent US20140056918A1.
